Target: human orexin-2 receptor (Homo sapiens (Human), UniProt O43614)
Sequence (O43614 whole entry): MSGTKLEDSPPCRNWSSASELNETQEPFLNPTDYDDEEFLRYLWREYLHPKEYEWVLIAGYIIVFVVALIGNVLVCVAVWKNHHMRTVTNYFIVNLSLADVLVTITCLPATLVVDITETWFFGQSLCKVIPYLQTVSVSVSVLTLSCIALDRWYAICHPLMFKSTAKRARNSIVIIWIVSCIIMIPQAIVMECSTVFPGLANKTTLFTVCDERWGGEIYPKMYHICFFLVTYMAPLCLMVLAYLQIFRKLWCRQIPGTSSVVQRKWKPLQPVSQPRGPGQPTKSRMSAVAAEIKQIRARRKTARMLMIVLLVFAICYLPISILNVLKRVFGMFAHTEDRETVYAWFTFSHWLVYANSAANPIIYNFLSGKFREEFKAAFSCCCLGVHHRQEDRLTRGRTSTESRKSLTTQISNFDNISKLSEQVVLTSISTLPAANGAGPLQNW
READOUT_KIND: pKi
pKi here: minus log base 10 of the concentration, concentration in moles per litre.

Problem: Recorded pKi for O=C(c1cccc(F)c1-n1nccn1)N1CC2CN(c3cnc4cc(F)c(F)cc4n3)CC2C1 (stereo not shown) with human orexin-2 receptor (Homo sapiens (Human), UniProt O43614), please?
Result: 7.74
